Where do the numbers come from? From PubChem BioAssay.

What composite z-score was measured for each of the following?
Assay: anti-His antibody binders, primary screen, artefact control for SMM control protein annotation, biochemical, small-molecule microarray, 635 nm fluorescence (AID 1128);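 also: score merges feature fluorescence with signal-to-noise for each printed compound spot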
Settings: anti-His Alexa647 antibody binding, higher = more signal
Give bare numbers.

Observe how each entry below is paired with its result.
CC(C)=CCCC(C)=CCON=C1C[C@@H](O)[C@@H](O)[C@@H]2[C@@H]3C(=O)N([C@@H](C)c4ccccc4)C(=O)[C@@H]3CC[C@@H]12 | 0.509
CCOC(=O)[C@H](CC(C)C)NC(=O)CCC1CC(OC(=O)NCc2ccc3c(c2)OCO3)CC2(CCCC(COC(=O)NCCC(C)C)O2)O1 (some centres not stated) | 0.348
CCCNC(=O)OC[C@H]1O[C@H](CCON=C[C@@H](C)[C@H](OCc2ccccc2)C(C)C)C=C[C@@H]1Oc1ccc(OC)cc1 | 3.25
COC(=O)CC=C[C@@H](C)[C@@H](C=NOC[C@@H](O)COCc1ccco1)NS(=O)(=O)c1ccc(C)cc1 | 0.13
COC(=O)[C@H](C)NC(=O)CCC1CC(OC(=O)NCCc2ccc(F)cc2)CC2(CCCC(COC(=O)NCc3ccccc3)O2)O1 (some centres not stated) | 0.36

# batch: return composite z-score for each of the 2 molecules below
1. CCN1C(=O)[C@H]2[C@H]3[C@H](O)[C@H](O)CC(=NNC(=O)OCc4ccccc4)[C@H]3CC[C@H]2C1=O
2. CO[C@@H]1COC(=O)CC=C[C@H](C)[C@H](OC)COC(=O)[C@@H]2CCCN2C(=O)CC=C[C@H]1C

Outgoing:
1. 0.0371
2. -0.51

----------
Test: anti-His antibody binders, primary screen, artefact control for SMM control protein annotation, biochemical, small-molecule microarray, 635 nm fluorescence (AID 1128);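 also: score merges feature fluorescence with signal-to-noise for each printed compound spot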
Conditions: anti-His Alexa647 antibody binding, higher = more signal
readout type: composite z-score
Numbers only.

Observe how each entry below is paired with its result.
CC(C)(C)N1C(=O)[C@H]2[C@@H]3C(=CC[C@H]2C1=O)C(=O)[C@H]1O[C@H]1[C@H]3O | 0.23
C[C@H]1C=CCC(=O)OC[C@H](C)C(=O)N2CCC[C@H]2C(=O)OC1 | -0.637
CCN(CC)CC(O)CN1CCCCc2nc(C)c(C)cc21 (stereo not drawn) | 1
CCc1cc2c(nc1CC)CCN(CCC(C)=NO[C@@H]1O[C@H](COC(C)=O)[C@@H](OC(C)=O)[C@H](OC(C)=O)[C@H]1OC(C)=O)C2 | 0.0815
CC[C@@H](c1ccccc1)n1c(=O)n2n(c1=O)[C@H]1[C@H](O)[C@@H]3O[C@@H]3C(=NOCc3ccccc3)[C@H]1CC2 | 0.274

# batch: return composite z-score for each of the 3 compounds below
1. COC(=O)[C@H](C)NC(=O)CCC1CC(OC(=O)NCc2ccc3c(c2)OCO3)CC2(CCCC(COC(=O)NCCCN3CCCC3=O)O2)O1 (stereo partly drawn)
2. CCOC(=O)[C@H](CC(C)C)NC(=O)CCC1CC(OC(=O)NCCc2ccc(F)cc2)CC2(CCCC(COC(=O)NCc3cccc(C(F)(F)F)c3)O2)O1 (stereo partly drawn)
3. COc1ccc(OC[C@H]2CN3[C@@H](CC[C@@H](C)[C@@H]3c3ccc(Br)cc3)C(=O)O2)cc1

Outgoing:
1: 0.23; 2: 0.167; 3: 0.0994

----------
Test system: Plasmodium falciparum Sir2 (PF13_0152, Sir2A)
Assay: pfSir2 binders on small-molecule microarrays, primary screen, biochemical, small-molecule microarray, 635 nm fluorescence (AID 1098);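 also: score merges spot fluorescence intensity with its signal-to-noise ratio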
Settings: small-molecule microarray binding, fluorescence 635 nm; higher = more signal
What composite z-score was measured for each of the following?

Observe how each entry below is paired with its result.
O=C1[C@H]2CCn3c(=O)n(Cc4cc5c(cc4Cl)OCO5)c(=O)n3[C@H]2[C@H](O)[C@@H]2O[C@H]12 | 0.652
COc1ccc(O[C@H]2C=C[C@@H](c3ccccc3)O[C@@H]2CON=C2c3cc(OC)ccc3O[C@H](c3cccc(OC)c3)[C@H]2O)cc1 | -0.177
CO[C@@H]1[C@H](O)CO[C@H]1C=Cc1ccccc1 | 1.55
CCN1C(=O)[C@H]2[C@H]3[C@H](O)[C@H](O)CC(=NOC(C)CN4CCCc5nc(C)c(C)cc54)[C@@H]3CC[C@H]2C1=O (stereo partly drawn) | 0.333
CC(C)=NO[C@@H](C)c1cn([C@H](CO)Cc2ccccc2)nn1 | 0.8
C#CCCCON=C1C[C@@H](O)[C@@H](O)[C@@H]2[C@@H]3C(=O)N(C[C@@H]4CCCO4)C(=O)[C@@H]3CC[C@@H]12 | 0.44
CCN1C(=O)[C@H]2[C@H]3[C@H](O)[C@H](O)CC(=NNC(=O)OCc4ccccc4)[C@@H]3CC[C@H]2C1=O | -0.16

Alright, here's another compound for you.
Incoming: Entry CCN1C(C)=C(C(=O)OC)[C@@H](c2ccccc2)N2C(=O)[C@](O)(C(=O)OC)CC(C(C)=O)=C12 has what composite z-score?
Outgoing: -0.166

----------
What z-score was measured for each of the following?
Experiment: CREB reporter modulators under forskolin, primary screen, cell-based, PC12, CRE-LacZ reporter, forskolin-stimulated (AID 1146);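 also: PC12 cells with 6xCRE LacZ reporter stimulated by forskolin 10 µM; beta-galactosidase reporter signal reflecting CREB driven transcription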
Conditions: luminescence, 4.5 h, higher = more signal, called active from +8 up or from −8 down
Give bare numbers.

Observe how each entry below is paired with its result.
COC(=O)[C@H](Cc1ccccc1)NC(=O)[C@@H](C)CO | 0.563
O=C1C[C@H](c2ccccc2)[C@H](c2ccc(Br)cc2)O1 | -0.0385

# batch: return z-score for each of the 3 compounds below
1. CC(=O)OC[C@H]1O[C@H](CC=NOC[C@@H](O)COCc2ccco2)C=C[C@@H]1OC(C)=O
2. CCOC(=O)NN=C1C[C@@H](O)[C@@H](O)[C@@H]2[C@@H]3C(=O)N(C[C@@H]4CCCO4)C(=O)[C@@H]3CC[C@H]12
3. C[C@@H]1CC[C@H]2C(=O)OC(CN3C(=O)c4ccccc4C3=O)CN2[C@H]1c1ccc(Br)cc1 (stereo not given in full)

Outgoing:
1: 0.25; 2: -0.0875; 3: -0.841

----------
Assay: Plasmodium falciparum growth inhibition, primary screen, strain 3D7, DAPI fluorescence, 100 nL (AID 1184);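 also: parasites grown inside human red blood cells in medium with human serum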
Details: P. falciparum 3D7 growth, 3 d, higher = more signal
What z-score was measured for each of the following?
Give bare numbers.

Observe how each entry below is paired with its result.
O=C1[C@H]2[C@H]3[C@H](O)[C@H](O)CC(=NO[C@@H]4O[C@H](CO)[C@@H](O)[C@H](O)[C@H]4O)[C@@H]3CC[C@H]2C(=O)N1c1cccc(Oc2ccccc2)c1 | -0.197
CO[C@H]1COC(=O)CCC[C@H](C)[C@@H](OC)COC(=O)CC=C[C@@H]1C | -0.809
O=C1[C@H]2[C@H]3[C@H](O)[C@H](O)CC(=NO[C@@H]4O[C@H](CO)[C@@H](O)[C@H](O)[C@H]4O)[C@@H]3CC[C@H]2C(=O)N1C1CCCCC1 | 0.0387
CCN1C(=O)[C@H]2[C@H]3[C@H](O)[C@H](O)CC(=NNC(=O)OCc4ccccc4)[C@@H]3CC[C@H]2C1=O | 1.14

# batch: return z-score for each of the 2 compounds below
1. Cc1ccc(C(C)C)n1C(=O)OC(C)(C)C
2. CC(=O)OC[C@H]1O[C@H](CC=NOC[C@@H](O)[C@H]2O[C@@H]3OC(C)(C)O[C@@H]3[C@H]2O)C=C[C@@H]1OC(C)=O

Outgoing:
0.271
0.158

----------
Assay: small-molecule microarray binders of probe aDKK1, primary screen, biochemical, biotinylated probe, 635/667 nm fluorescence (AID 1099);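 also: score merges 667nm spot fluorescence with signal to noise across triplicate slides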
Conditions: higher = more signal
readout type: composite z-score
Numbers only.

Observe how each entry below is paired with its result.
CC(C)CON=C1[C@H]2CCn3c(=O)n(C)c(=O)n3[C@H]2[C@H](O)[C@@H]2O[C@H]12 | -0.339
CC(C)[C@@H](OCc1ccccc1)[C@H](C)C=NO[C@H](C)c1cn([C@@H]2COC[C@H]2O)nn1 | -0.492
COC(=O)[C@H](C)NC(=O)CCC1CC(OC(=O)NCc2cccc3ccccc23)CC2(CCCC(COC(=O)NCc3cccc(C(F)(F)F)c3)O2)O1 (some centres not stated) | -0.0508
CO[C@H]1COC(=O)[C@H](C)COC(=O)[C@@H](OCc2ccccc2)C=C[C@@H]1C | -0.386
C=CC[C@@H]1C=C[C@H](ON=C2C[C@@H](O)[C@@H](O)[C@@H]3[C@@H]4C(=O)N(CC)C(=O)[C@@H]4CC[C@@H]23)[C@@H](CO)O1 | -0.428

# batch: return composite z-score for each of the 2 molecules below
1. CC[C@@H](c1ccccc1)n1c(=O)n2n(c1=O)[C@H]1[C@H](O)[C@@H]3O[C@@H]3C(=NOCc3ccccc3)[C@H]1CC2
2. COc1ccc(OC[C@@H]2CC3[C@@H](c4ccc(Br)cc4)[C@H](C)CC[C@H]3C(=O)O2)cc1 (some centres not stated)

Outgoing:
[-0.148, -0.436]
